Experiment: MultiTox-Fluor Cytotoxicity Assay - LYMP1-002 - Dead Cells (AID 960); note: nearly all actives have a fitted effect of over 60% in size
Settings: LYMP1-002 lymphoblastoid cells, dead-cell protease fluorescence; series mostly up to 46.1 µM
Records with an inconclusive call do not appear. Active and inactive are the calls of the source. Calls come from the whole dose curve; as a rule, active = well fitted cell-killing curve with a large enough effect; inconclusive = small, poorly fitted or top-dose-only effect, or effect the other way; inactive = no such curve, though single readings can be large or run the other way.
Log the outcome using a class from active, inactive

Reference set, count: 4
[
  {
    "molecule": "CC(=O)/C=C/c1ccccc1",
    "classification": "inactive"
  },
  {
    "molecule": "CCOC(=O)c1ccccc1N",
    "classification": "inactive"
  },
  {
    "molecule": "c1ccc(Nc2cccc3ccccc23)cc1",
    "classification": "active"
  },
  {
    "molecule": "CCOc1cc(C=O)ccc1O",
    "classification": "inactive"
  }
]

Write down the call the test reported for this molecule. Item: `Oc1ccccc1Cl` inactive

Thanks! And `COC(=O)c1ccccc1C(=O)OC` ? inactive

Thanks! And `Oc1ccccc1O` ? active

Thanks! And `O=Cc1ccccc1` ? inactive

Thanks! And COC1=CC(=O)OC(CCc2ccc3c(c2)OCO3)C1 (stereo unspecified) ? inactive

Thanks! And `CC(=O)[C@H]1CC[C@H]2[C@@H]3CCC4=CC(=O)CC[C@]4(C)[C@H]3CC[C@]12C` ? active

Thanks! And `c1ccc2c(c1)-c1cccc3cccc-2c13` ? inactive

----------
Experiment: qHTS for Inhibitors of the Functional Ribonucleoprotein Complex (vRNP) of Lassa (LASV) Arenavirus: Viability assay - alamar blue signal for LASV Primary Screen (AID 1347083); note: nearly all actives have a fitted effect of over 80% in size
Conditions: cell viability, alamar blue fluorescence (LASV minigenome counter-screen); series mostly up to 57.5 µM
Results filed as inconclusive are left out. Active and inactive are the calls of the source. Calls follow the shape of the full dose curve; tested in HEK293 reporter line.
Log the outcome using a class from 1.0 (active), 0.0 (inactive)

Reference set, count: 5
[
  {
    "molecule": "CC(=O)OC1C(O)C(C)OC(OC2C(OC(=O)C3CCC4C(C3)OC3(CC(OC(=O)/C=C/c5ccccc5)C(C)CO3)C43CO3)OC(C)C(O)C2OC(C)=O)C1O (stereo not given)",
    "classification": 1.0
  },
  {
    "molecule": "C#CCCCCCCCCCCCc1ccco1",
    "classification": 0.0
  },
  {
    "molecule": "O=C1NC2C(=CC(O)C(O)C2O)c2cc3c(cc21)OCO3 (stereo not given)",
    "classification": 1.0
  },
  {
    "molecule": "CC/C=C\\CCOC(=O)c1ccccc1",
    "classification": 0.0
  },
  {
    "molecule": "CC(C)CC[C@@H](O)[C@](C)(O)C1CC[C@@]2(O)C3=CC(=O)[C@@H]4C[C@@H](O)[C@@H](O)C[C@]4(C)C3CC[C@]12C (stereo not given in full)",
    "classification": 0.0
  }
]

Write down the call the test reported for this molecule. Item: `O=C(C[C@@H]1NCCC[C@@H]1O)Cn1cnc2ccccc2c1=O` 0.0

Thanks! And `Fc1ccc(C(c2ccc(F)cc2)N2CCN(CC=Cc3ccccc3)CC2)cc1` ? 0.0

Thanks! And `CC(C)(F)C[C@H](N[C@@H](c1ccc(-c2ccc(S(C)(=O)=O)cc2)cc1)C(F)(F)F)C(=O)NC1(C#N)CC1` ? 0.0

Thanks! And `O=C1CCc2ccccc2O1` ? 0.0

Thanks! And `Cc1cc(Nc2ncc3c(n2)N(C)C(=O)N(c2cc(NC(=O)c4cccc(C(F)(F)F)c4)ccc2C)C3)n(C)n1` ? 1.0

----------
System: PA-1
Test: Primary qHTS to identify gynecologic anti-cancer compounds using libraries of approved drugs and bioactive compounds (AID 1345084); note: nearly all actives have a fitted effect of over 55% in size
Conditions: Gynecologic cancer cell panel viability, ATPlite luminescence, 48 h; series mostly up to 57.5 µM
Results filed as inconclusive are left out. Calls of active or inactive are those of the source. Calls come from the whole dose curve; as a rule, active = well fitted cell-killing curve with a large enough effect; inconclusive = small, poorly fitted or top-dose-only effect, or effect the other way; inactive = flat fitted curve, though single readings scatter.
Log the outcome using a class from active, inactive

Reference set, count: 5
[
  {
    "molecule": "CN1CCCCC1Cn1cc(C(=O)c2cc([N+](=O)[O-])ccc2I)c2ccccc21 (centres undefined)",
    "classification": "inactive"
  },
  {
    "molecule": "CCC1(O)CCC2C3CCC4=CC(=O)CCC4C3CCC21CC (centres undefined)",
    "classification": "inactive"
  },
  {
    "molecule": "CC(=O)OC[C@]12C[C@H](O)C(C)=C[C@H]1O[C@@H]1[C@H](O)[C@@H](O)[C@@]2(C)[C@]12CO2",
    "classification": "active"
  },
  {
    "molecule": "COc1ccc2[nH]c(-c3ccccc3)c(CCN(C)C)c2c1",
    "classification": "inactive"
  },
  {
    "molecule": "C=C(C)[C@@]12O[C@@H]1[C@@]1(C)C(=C[C@H]2O)CC[C@@H](O)[C@@H]1C",
    "classification": "inactive"
  }
]

Consider the additional molecule presented here.
Write down the call the test reported for this molecule. Item: COc1ccc(CC2C(=O)NC(C)C(=O)N(C)C3Cc4ccc(cc4)Oc4cc(ccc4OC4OC(CO)C(O)C(O)C4O)CC(C(=O)NC(C)C(=O)NC(CCC(=O)O)C(=O)N2C)N(C)C3=O)cc1 (centres undefined) active

----------
Assay: SDT Cancer Cell Toxicity qHTS against the NCATS CANVASS Library (AID 1347365); note: nearly all actives have a fitted effect of over 60% in size
Settings: SDT dog glioma viability, ATP luminescence, 72 h; series mostly up to 46.1 µM
Inconclusive results are not listed. Activity calls are given as the source filed them. Calls come from the whole dose curve; as a rule, active = well fitted cell-killing curve with a large enough effect; inconclusive = small, poorly fitted or top-dose-only effect; inactive = flat fitted curve, though single readings scatter.
Log the outcome using a class from active, inactive

[
  {
    "molecule": "CCCC[C@@H]1CC[C@H]2CCCC(CCC)N12 (some centres undefined)",
    "classification": "inactive"
  },
  {
    "molecule": "COC(=O)C1=C2Nc3ccccc3[C@@]23CCN2CC(C(C)=O)C1C[C@H]23 (some centres undefined)",
    "classification": "inactive"
  },
  {
    "molecule": "CCN1C[C@]2(C)CC[C@@H](O)[C@]34C1[C@H](C[C@H]23)C12CCC(CC14)[C@](O)(CO)[C@H]2O (some centres undefined)",
    "classification": "inactive"
  },
  {
    "molecule": "C[C@]12CC(O)C3[C@@H](CCC4C[C@@H](O)CC[C@@]43CO)[C@@]1(O)CCC2C1=CC(=O)OC1 (some centres undefined)",
    "classification": "active"
  },
  {
    "molecule": "CC=C1CN(C=O)[C@H]2C[C@@H]1[C@@H](C(=O)OC)[C@@]13CCOC21Nc1ccccc13 (some centres undefined)",
    "classification": "inactive"
  }
]

Write down the call the test reported for this molecule. Item: `CCC(=O)CCCCC[C@@H]1NC(=O)[C@H]2CCCCN2C(=O)[C@H]([C@@H](C)CC)NC(=O)[C@H](Cc2cn(OC)c3ccccc23)NC1=O` active

Thanks! And `CC1=CC(=O)C2=C(C)C[C@H](O)[C@@H]3[C@H](OC(=O)[C@@H]3C)[C@@H]12` ? inactive

Thanks! And `CNCCc1ccc(O)cc1` ? inactive

Thanks! And CCCCC[C@@H]1OC(=O)[C@@H](C)N(C)C(=O)[C@H](CCCCC)OC(=O)C(C)N(C)C(=O)[C@H](CCCCC)OC(=O)[C@@H](C)N(C)C(=O)[C@H](CCCCC)OC(=O)C(C)N(C)C1=O (some centres undefined) ? active

----------
Test system: OV90
Experiment: Primary qHTS to identify gynecologic anti-cancer compounds using libraries of approved drugs and bioactive compounds (AID 1345084); note: nearly all actives have a fitted effect of over 55% in size
Details: Gynecologic cancer cell panel viability, ATPlite luminescence, 48 h; series mostly up to 57.5 µM
Records with an inconclusive call do not appear. Calls of active or inactive are those of the source. Calls come from the whole dose curve; as a rule, active = well fitted cell-killing curve with a large enough effect; inconclusive = small, poorly fitted or top-dose-only effect, or effect the other way; inactive = flat fitted curve, though single readings scatter.
Log the outcome using a class from true (1) = active, false (0) = inactive

[
  {
    "compound": "CCC1CN2CCc3cc(OC)c(OC)cc3C2CC1CC1=NCCc2cc(O)c(OC)cc21 (stereo not drawn)",
    "classification": "false (0)"
  },
  {
    "compound": "C#CCO[C@H]1CN2CCC1CC2",
    "classification": "false (0)"
  }
]

Consider the additional compound presented here.
Write down the call the test reported for this compound. Item: C[C@@H]1O[C@@H](O[C@H]2CC[C@@]3(C)C(CC[C@@H]4C3CC[C@]3(C)[C@@H](C5=CC(=O)OC5)CC[C@]43O)C2)[C@H](O)[C@H](O)[C@H]1O (stereo partly drawn) true (1)

----------
System: CRL-7250
Test: qHTS assay to identify novel small-molecules to repurpose for Merkel cell carcinoma treatment (AID 1296009); note: nearly all actives have a fitted effect of over 60% in size
Conditions: MCC and control cell lines, CellTiter-Glo viability, 72 h; series mostly up to 92 µM
Records with an inconclusive call do not appear. The source made the active and inactive calls. Calls come from the whole dose curve; as a rule, active = well fitted inhibition curve with a large enough effect; inconclusive = small, poorly fitted or top-dose-only effect; inactive = flat fitted curve, though single readings scatter.
endpointLabel: outcome

[
  {
    "compound": "C=C1CC[C@@H]2[C@@](C)(CO[C@@H]3O[C@H](CO)[C@@H](O)[C@H](O)[C@H]3O)[C@H](O)CC[C@@]2(C)[C@@H]1CC/C(C)=C/CO[C@@H]1O[C@H](CO)[C@@H](O)[C@H](O)[C@H]1O",
    "outcome": "inactive"
  },
  {
    "compound": "CC1(C)CC[C@]2(C(=O)O[C@@H]3O[C@H](CO)[C@@H](O)[C@H](O)[C@H]3O)CC[C@]3(C)C(=CCC4[C@@]5(C)C[C@@H](O)[C@H](O)[C@@](C)(CO)C5[C@H](O)C[C@]43C)C2[C@@H]1O (stereo partly drawn)",
    "outcome": "inactive"
  },
  {
    "compound": "CC#C[C@@H](CC(=O)O)c1ccc(OCc2ccc(CN3CCC4(C=Cc5ccccc54)CC3)s2)cc1",
    "outcome": "inactive"
  },
  {
    "compound": "O=C(NC1CCN(CC(F)(F)F)CC1)c1ccc(-c2cccc(F)c2)nc1",
    "outcome": "inactive"
  }
]

List outcome for every entry below, keeping the order given.
1. OCC(O)C(c1c[nH]c2ccccc12)c1c[nH]c2ccccc12 (stereo not drawn)
2. C/C(=C/CCC(CO)C1CCC2(C)C3CCC4C(C)(C)C(OC5OC(CO)C(O)C(O)C5O)CC(O)C45CC35CCC12C)COC1OC(CO)C(O)C(O)C1O (stereo not drawn)
3. COc1cc(/C=C/C(=O)OC2CC3CCC2(C)C3(C)C)ccc1O (stereo not drawn)
4. NC(Cc1c[nH]c2ccccc12)C(=O)NC(CCC(=O)O)C(=O)O (stereo not drawn)

["inactive", "inactive", "inactive", "inactive"]
